Catalogue of pIC50 values
System: tissue factor-induced thrombin generation in normal human platelet-poor plasma
PROCEDURE_TEXT: Thrombin generation assay
Assay type: biochemical
PARTICULARS: read-out: Cmax IC50; peak thrombin generation; normal human PPP; −TM (absence of rhs-TM)
Note on units: pIC50 is unitless, being -log10 of a concentration expressed in mol/L.

>>> readout_number("O=C(NC[C@H]1CN(c2ccc(N3CCOCC3=O)cc2)C(=O)O1)c1ccc(Cl)s1 [Rivaroxaban]")
7.18

Exercise: Given the entry N=C(N)c1ccc(CNC(=O)[C@@H]2CCN2C(=O)[C@H](NCC(=O)O)C2CCCCC2)cc1 [Melagatran] , report its measured pIC50.
Solution: 6.03

Exercise: [H]/N=C(/N)c1ccc(NCc2nc3cc(C(=O)N(CCC(=O)O)c4ccccn4)ccc3n2C)cc1 [Dabigatran] , same question.
Solution: 6.01

Origin of measurements: paper PMC4285304
